System: Mus musculus
Assay: Neuroprotective activity in haloperidol-induced catalepsy Mus musculus Swiss albino (mouse) model assessed as mean descent time at 100 mg/kg, po administered 30 min before haloperidol challenge measured at 90 min post challenge
Assay type: functional
measurementLabel: Time (s)
# number only, unit s dropped from output

Input: Returns the measured Time for the input molecule. Input: S=C(Nc1ccccc1)Nc1nc2c(ccc3ccccc32)s1
Output: 151

Input: Same question for Fc1ccc(NC(=S)Nc2nc3c(ccc4ccccc43)s2)cc1 please.
Output: 167

Input: What about this molecule? S=C(Nc1ccc(Br)cc1)Nc1nc2c(ccc3ccccc32)s1
Output: 161

***
Input: # Time lookup, item COc1ccc(NC(=O)Nc2nc3c(ccc4ccccc43)s2)c(OC)c1
Output: 39

Input: Now give it for COc1ccccc1NC(=O)Nc1nc2c(ccc3ccccc32)s1 too.
Output: 43

Input: How about this molecule: O=C(Nc1ccc(Oc2ccccc2)cc1)Nc1nc2c(ccc3ccccc32)s1
Output: 119

Input: Same read-out for O=C(Nc1ccc(F)cc1)Nc1nc2c(ccc3ccccc32)s1 ?
Output: 196

Input: Can you check COc1cc(NC(=O)Nc2nc3c(ccc4ccccc43)s2)cc(OC)c1OC next?
Output: 85

Input: Next record, please: Cc1ccc(NC(=O)Nc2nc3c(ccc4ccccc43)s2)cc1
Output: 137

Input: Also COc1ccccc1NC(=S)Nc1nc2c(ccc3ccccc32)s1 , if possible.
Output: 65

Input: Cool, now S=C(Nc1nc2c(ccc3ccccc32)s1)Nc1ccccc1Cl
Output: 173

Input: Then this molecule: O=C(Nc1ccc(Br)cc1)Nc1nc2c(ccc3ccccc32)s1
Output: 156

Input: Continue with O=C(Nc1nc2c(ccc3ccccc32)s1)Nc1ccccc1[N+](=O)[O-]
Output: 57

Input: Entry to check: Fc1ccccc1NC(=S)Nc1nc2c(ccc3ccccc32)s1
Output: 152

###

System: Mus musculus
Experiment: Neuroprotective activity in Mus musculus Swiss albino (mouse) model assessed as reduction in haloperidol-induced catalepsy at 100 mg/kg, ip administered 30 min before haloperidol challenge measured for 30 to 180 min
Type: functional
Design: scale not given: the % may be the effect or the level left
Details: route intraperitoneal
measurementLabel: Activity (%)
Your answer is read as %, so omit the unit and give the number.

Example entries and their recorded answers appear below.
Input: Can you look up the measured Activity of S=C(Nc1ccccc1)Nc1nc2c(ccc3ccccc32)s1 for me?
Output: 44.63

Input: Moving on to the next compound: O=C(Nc1nc2c(ccc3ccccc32)s1)Nc1cc(C(F)(F)F)ccc1Cl
Output: 51.37

Input: What do you get for O=C(Nc1ccc([N+](=O)[O-])cc1)Nc1nc2c(ccc3ccccc32)s1 ?
Output: 31.28

New cases:
Input: Which Activity is reported for this compound? Cc1ccc(NC(=O)Nc2nc3c(ccc4ccccc43)s2)cc1
Output: 48.56

Entry source: ChEMBL document CHEMBL3045060
